The reported measurements were obtained from PubChem BioAssay AID1159580.

# assayText: chemical genetic growth profiling, strain panel (AID 1159580);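 further: tested at 20 µM; growth read once vehicle control cultures reached saturation at 30 °C; 1 = growth at the plate median or of vehicle wells; lower values mean less growth of the strain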
# conditionDescription: S. cerevisiae deletion strains, growth OD, locus YER015W, strain faa2, stronger effect = lower value
Screen size: about 5,500 compounds; about 2,000 (36%) were called active. Not shown: some 18% with an inconclusive outcome. The list shows a part of the results.
recordedEndpoint: normalized growth
Numbers only.

Worked cases, answers included:
Lookup: For the compound COC(=O)/C(=C1\OC(=O)C(c2ccccc2)=C1O)c1ccccc1 , what normalized growth is on record?
Found: 0.967

Lookup: Reported normalized growth, compound CC(C)CCCC(C)[C@H]1CCC2C3CC=C4C[C@@H](O)CC[C@]4(C)C3CC[C@@]21C (some centres undefined) : ____
Found: 0.995

Lookup: Which normalized growth reading was recorded for the compound CC1=CC(=O)c2ccccc2C1=O ?
Found: 0.971

Lookup: Requested read-out: normalized growth. Entry: O=C(OCc1ccccc1)c1ccccc1
Found: 0.966

Lookup: Reported normalized growth, compound CC(=O)Oc1cccc(O)c1 : ____
Found: 1.02

Lookup: Consider the compound CC(N=C(NC#N)Nc1ccncc1)C(C)(C)C (centres undefined) and give its measured normalized growth.
Found: 0.999

Please supply normalized growth for each of the following items, keeping them in order.
1. CC(=O)c1ccc(O)c(CC=C(C)C)c1
2. CC(C)CCCC(C)C1CCC2C3=CC[C@H]4C[C@@H](O)CC[C@]4(C)C3CC[C@@]21C (some centres undefined)

Found:
[0.971, 0.985]
